- measured on: MRGPRX4 (Homo sapiens, UniProt Q96LA9)
- Sequence (Q96LA9 whole entry): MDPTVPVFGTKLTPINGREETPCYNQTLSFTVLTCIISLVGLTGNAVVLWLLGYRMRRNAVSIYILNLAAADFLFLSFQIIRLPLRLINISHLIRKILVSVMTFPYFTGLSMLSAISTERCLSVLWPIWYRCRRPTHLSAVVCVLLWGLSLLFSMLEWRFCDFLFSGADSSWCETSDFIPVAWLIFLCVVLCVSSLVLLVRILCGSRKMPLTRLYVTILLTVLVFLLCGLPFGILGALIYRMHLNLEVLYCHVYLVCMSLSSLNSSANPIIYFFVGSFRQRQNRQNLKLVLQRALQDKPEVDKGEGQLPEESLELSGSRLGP
- protocol notes: MRGPRX4 activation, Fluo-8 Ca2+ FLIPR assay in HEK293T cells stably expressing MRGPRX4
- Assay type: cell-based
- Design: key: fluorescence change dF/F0
- run conditions: E3-9, Conc. (Log[M]) −6.9
- Description: In some embodiments, cells were cultured in poly-D-Lys coated blacked walled, clear-bottom 96-well microplates. […] The concentration of solution should be determined according to the protocol settings and experimental needs (e.g., Log[M]=−4, −5, −6, −7, −8, and −9). […] A fluorescent signal baseline was measured using FLIPR®Tetra for 30 s. […] The fluorescent signal would be measured for another 150 s. Activity of each compound was calculated by the fluorescence change (dF/F0). […]
Parameter MRGPRX4 activation, Average: see the listing below.

CC[C@H]1[C@@H](O)[C@@H]2[C@H](CC[C@]3(C)[C@@H]([C@H](C)CCNS(=O)(=O)CC(C)C)CC[C@@H]23)[C@@]2(C)CCCC[C@@H]12 [6-4]	0.018

Form field: reported MRGPRX4 activation, Average of CC[C@H]1[C@@H](O)[C@@H]2[C@H](CC[C@]3(C)[C@@H]([C@H](C)CCNC(=O)NS(=O)(=O)c4cc(F)cc(F)c4)CC[C@@H]23)[C@@]2(C)CC[C@H](F)C[C@@H]12 [9-3]
0.014

Next compound: CC[C@H]1[C@@H](O)[C@@H]2[C@H](CC[C@]3(C)[C@@H]([C@H](C)CCNC(=S)NS(=O)(=O)c4cccs4)CC[C@@H]23)[C@@]2(C)CCC(F)(F)C[C@@H]12 [11-3]
0.010

What about CC[C@H]1[C@@H](O)[C@@H]2[C@H](CC[C@]3(C)[C@@H]([C@H](C)CCNC(=O)C(=O)NS(=O)(=O)c4cccs4)CC[C@@H]23)[C@@]2(C)CCCC[C@@H]12 [8-2] ?
0.018

Another compound to look at: CC[C@H]1[C@@H](O)[C@@H]2[C@H](CC[C@]3(C)[C@@H]([C@H](C)CCNC(=O)NS(=O)(=O)c4cccs4)CC[C@@H]23)[C@@]2(C)CC[C@H](F)C[C@@H]12 [9-4]
0.019

Now give it for CC[C@H]1[C@@H](O)[C@@H]2[C@H](CC[C@]3(C)[C@@H]([C@H](C)CCNS(=O)(=O)C4CC4)CC[C@@H]23)[C@@]2(C)CCCC[C@@H]12 [6-5] too.
0.018

---

Consider the following molecules and their measured MRGPRX4 activation, Average readings.
- measured on: MRGPRX4 (Homo sapiens, UniProt Q96LA9)
- protocol notes: MRGPRX4 activation, Fluo-8 Ca2+ FLIPR assay in HEK293T cells stably expressing MRGPRX4
- Type: cell-based
- Set-up: key: fluorescence change dF/F0
- run conditions: E3-9, Conc. (Log[M]) −4.5
Write no unit; give the number alone.

Example entries begin here.
CC[C@H]1[C@@H](O)[C@@H]2[C@H](CC[C@]3(C)[C@@H]([C@H](C)CCN=C=S)CC[C@@H]23)[C@@]2(C)CCC(F)(F)C[C@@H]12	0.020
CC[C@H]1[C@@H](O)[C@@H]2[C@H](CC[C@]3(C)[C@@H]([C@H](C)CCNC(=O)NS(=O)(=O)c4cc(F)cc(F)c4)CC[C@@H]23)[C@@]2(C)CCC(F)(F)C[C@@H]12	0.004
CC[C@H]1[C@@H](O)[C@@H]2[C@H](CC[C@]3(C)[C@@H]([C@H](C)CCNC(=O)NS(=O)(=O)c4ccc(Br)cc4OC(F)(F)F)CC[C@@H]23)[C@@]2(C)CC[C@H](F)C[C@@H]12	0.014
CC[C@H]1[C@@H](O)[C@@H]2[C@H](CC[C@]3(C)[C@@H]([C@H](C)CCNC(=O)NS(=O)(=O)c4cccs4)CC[C@@H]23)[C@@]2(C)CCC(F)(F)C[C@@H]12	0.001
CC[C@H]1[C@@H](O)[C@@H]2[C@H](CC[C@]3(C)[C@@H]([C@H](C)CCNC(=O)NS(=O)(=O)c4cccs4)CC[C@@H]23)[C@@]2(C)CC[C@H](F)C[C@@H]12	0.004

Now take the following molecule into account.
Any idea what MRGPRX4 activation, Average came out for CC[C@H]1[C@@H](O)[C@@H]2[C@H](CC[C@]3(C)[C@@H]([C@H](C)CCNC(=O)NS(=O)(=O)c4ccc5c(c4)CCC(C)(C)O5)CC[C@@H]23)[C@@]2(C)CCCC[C@@H]12 on MRGPRX4 (Homo sapiens, UniProt Q96LA9)?
0.014

---

# MRGPRX4 activation, fluorescence change (dF/F0), Average values compiled below
- measured on: MRGPRX4 (Homo sapiens)
- protocol notes: MRGPRX4 activation, Fluo-8 Ca2+ FLIPR assay in HEK293T cells stably expressing MRGPRX4
- Assay type: cell-based
- run conditions: Conc. (Log[M]) −5.5

CC[C@H]1[C@@H](O)[C@@H]2[C@H](CC[C@]3(C)[C@@H]([C@H](C)CCC(=O)NS(=O)(=O)C(C)(C)C)CC[C@@H]23)[C@@]2(C)CCCC[C@@H]12	−0.013

If you can, please state the reported MRGPRX4 activation, fluorescence change (dF/F0), Average value of CC[C@H]1[C@@H](O)[C@@H]2[C@H](CC[C@]3(C)[C@@H]([C@H](C)CCNC(=O)NS(=O)(=O)c4ccc(C)cc4)CC[C@@H]23)[C@@]2(C)CCCC[C@@H]12 .
0.017

Same question for CC[C@H]1[C@@H](O)[C@@H]2[C@H](CC[C@]3(C)[C@@H]([C@H](C)CCC(=O)OC)CC[C@@H]23)[C@@]2(C)CCCC[C@@H]12 please.
−0.004

Also, CC[C@H]1[C@@H](O)[C@@H]2[C@H](CC[C@]3(C)[C@@H]([C@H](C)CCNC(=O)NS(=O)(=O)C4CCCCC4)CC[C@@H]23)[C@@]2(C)CCCC[C@@H]12 please.
−0.012

And C[C@H](CC(=O)O)[C@H]1CC[C@H]2[C@@H]3CC[C@@H]4C[C@H](O)CC[C@]4(C)[C@H]3C[C@H](O)[C@]12C ?
−0.019

---

- measured on: MRGPRX4 (Homo sapiens)
- protocol notes: MRGPRX4 activation, Fluo-8 Ca2+ FLIPR assay in HEK293T cells stably expressing MRGPRX4
- Assay type: cell-based
- run conditions: Conc. (Log[M]) −4
MRGPRX4 activation, fluorescence change (dF/F0), Average overview

A selection of reference data follows.
CC[C@H]1[C@@H](OC(=O)c2cccc(I)c2)[C@@H]2[C@H](CC[C@]3(C)[C@@H]([C@H](C)CCC(=O)OC)CC[C@@H]23)[C@@]2(C)CCCC[C@@H]12	0.035
CC[C@H]1[C@@H](O)[C@@H]2[C@H](CC[C@]3(C)[C@@H]([C@H](C)CCNC(=O)NS(=O)(=O)c4cc(F)ccc4F)CC[C@@H]23)[C@@]2(C)CC[C@H](F)C[C@@H]12	0.655
C[C@H](CCC(C)(C)O)[C@H]1CC[C@H]2[C@@H]3CC[C@@H]4CCCC[C@]4(C)[C@H]3CC[C@]12C	0.074

Query compound follows.
Given the entry CC[C@H]1[C@@H](O)[C@@H]2[C@H](CC[C@]3(C)[C@@H]([C@H](C)CO)CC[C@@H]23)[C@@]2(C)CCCC[C@@H]12 , report its measured MRGPRX4 activation, fluorescence change (dF/F0), Average.
0.098

---

- measured on: MRGPRX4 (Homo sapiens, UniProt Q96LA9)
- protocol notes: MRGPRX4 activation, Fluo-8 Ca2+ FLIPR assay in HEK293T cells stably expressing MRGPRX4
- Assay type: cell-based
- Design: key: fluorescence change dF/F0
- run conditions: E3-9, Conc. (Log[M]) −4.0
MRGPRX4 activation, Average of 0.01 or higher: 1 (yes). Under 0.01: 0 (no).

CC[C@H]1[C@@H](O)[C@@H]2[C@H](CC[C@]3(C)[C@@H]([C@H](C)CCNC(=O)NS(=O)(=O)c4cc(F)ccc4F)CC[C@@H]23)[C@@]2(C)CCC(F)(F)C[C@@H]12	0 (no)
CC[C@H]1[C@@H](O)[C@@H]2[C@H](CC[C@]3(C)[C@@H]([C@H](C)CCNC(=O)NS(=O)(=O)c4cc(F)ccc4F)CC[C@@H]23)[C@@]2(C)CC[C@H](F)C[C@@H]12	1 (yes)
CC[C@H]1[C@@H](O)[C@@H]2[C@H](CC[C@]3(C)[C@@H]([C@H](C)CCNC(=O)NS(=O)(=O)c4ccc(N5CCCCC5)nc4)CC[C@@H]23)[C@@]2(C)CCCC[C@@H]12	1 (yes)
CC[C@H]1[C@@H](O)[C@@H]2[C@H](CC[C@]3(C)[C@@H]([C@H](C)CCN=C=S)CC[C@@H]23)[C@@]2(C)CCCC[C@@H]12	1 (yes)
CC[C@H]1[C@@H](O)[C@@H]2[C@H](CC[C@]3(C)[C@@H]([C@H](C)CCNC(=O)NS(=O)(=O)c4cccs4)CC[C@@H]23)[C@@]2(C)CC[C@H](F)C[C@@H]12	0 (no)

State whether the measured MRGPRX4 activation, Average reaches 0.01, counting equality as reaching it, for CC[C@H]1[C@@H](O)[C@@H]2[C@H](CC[C@]3(C)[C@@H]([C@H](C)CCNC(=O)C(=O)NS(=O)(=O)c4cccs4)CC[C@@H]23)[C@@]2(C)CCCC[C@@H]12
1 (yes)

Where these numbers come from: patent US20260116910A1
